assay: Peptide stability in human serum
Format: in vitro ADME
condition details: peptide 100 µM, 37 °C, aliquots 0 min to 48 h, MeOH protein precipitation, % intact peptide by UHPLC-UV, confirmed with mass spectrometry
Starred links: 1 amine or outer side, 2 acyl side, 3 side chain; linkers in the order of their positions; H or OH if unused. Positions of bridges follow the written chain, without caps; N, C: chain ends. Residues, ends and D or L forms follow the SMILES beside them. TBMB = c1c(C[*:1])cc(C[*:3])cc1C[*:2]
This section presents molecules with their documented half-life at 100 µM values.
Provide the reading as a plain figure in h.

Please review the following examples before continuing.
[[record]]
molecule = "CC(C)[C@@H]1NC(=O)[C@@H](N)CSCc2cc3cc(c2)CSC[C@H](NC(=O)[C@H](CCCNC(=N)N)NC(=O)[C@H](Cc2ccccc2)NC(=O)[C@H](CC(=O)O)NC(=O)[C@H](Cc2c[nH]c4ccccc24)NC(=O)[C@H](Cc2c[nH]cn2)NC1=O)C(=O)N[C@@H](CCC(N)=O)C(=O)N[C@@H](Cc1c[nH]c2ccccc12)C(=O)N[C@@H](Cc1c[nH]c2ccccc12)C(=O)N[C@@H](CCC(N)=O)C(=O)N1CCC[C@H]1C(=O)N[C@@H](CO)C(=O)N[C@H](C(N)=O)CSC3 [BrainBike-3] (H-CVHWDFRCQWWQPSC-NH2; linker 1-8-15 via TBMB)"
measured_metric = "half-life at 100 µM"
endpoint_result = 4.8

[[record]]
molecule = "CC(C)[C@@H]1NC(=O)[C@@H](N)CSCc2cc3cc(c2)CSC[C@H](NC(=O)[C@H](Cc2c[nH]c4ccccc24)NC(=O)[C@H](CCC(N)=O)NC(=O)[C@H](CCCNC(=N)N)NC(=O)[C@H](Cc2ccccc2)NC(=O)[C@H](CC(=O)O)NC(=O)[C@H](Cc2c[nH]c4ccccc24)NC(=O)[C@H](Cc2c[nH]cn2)NC1=O)C(=O)N[C@@H](CCC(N)=O)C(=O)N1CCC[C@H]1C(=O)N[C@@H](CO)C(=O)N[C@H](C(N)=O)CSC3 [BrainBike-2] (H-CVHWDFRQWCQPSC-NH2; linker 1-10-14 via TBMB)"
measured_metric = "half-life at 100 µM"
endpoint_result = 3.5


# evaluate next
Q. For the molecule CC(C)[C@@H]1NC(=O)[C@@H](N)CSCc2cc3cc(c2)CSC[C@H](NC(=O)[C@H](CC(=O)O)NC(=O)[C@H](Cc2c[nH]c4ccccc24)NC(=O)[C@H](Cc2c[nH]cn2)NC1=O)C(=O)N[C@@H](CCCNC(=N)N)C(=O)N[C@@H](CCC(N)=O)C(=O)N[C@@H](Cc1c[nH]c2ccccc12)C(=O)N[C@@H](Cc1c[nH]c2ccccc12)C(=O)N[C@@H](CCC(N)=O)C(=O)N1CCC[C@H]1C(=O)N[C@@H](CO)C(=O)N[C@H](C(N)=O)CSC3 [BrainBike-1] (H-CVHWDCRQWWQPSC-NH2; linker 1-6-14 via TBMB) , give its reported half-life at 100 µM.
A. 7.7

---

assay: Peptide stability in human serum
Format: in vitro ADME
condition details: peptide 100 µM, 37 °C, aliquots 0 min to 48 h, MeOH protein precipitation, % intact peptide by UHPLC-UV, confirmed with mass spectrometry
Starred links: 1 amine or outer side, 2 acyl side, 3 side chain; linkers in the order of their positions; H or OH if unused. Positions of bridges follow the written chain, without caps; N, C: chain ends. Residues, ends and D or L forms follow the SMILES beside them. TBMB = c1c(C[*:1])cc(C[*:3])cc1C[*:2]
measured metric: half-life at 100 µM (h)
Provide the reading as a plain figure in h.

Q. For the compound CC(C)[C@@H]1NC(=O)[C@@H](N)CSCc2cc3cc(c2)CSC[C@H](NC(=O)[C@H](CC(=O)O)NC(=O)[C@H](Cc2c[nH]c4ccccc24)NC(=O)[C@H](Cc2c[nH]cn2)NC1=O)C(=O)N[C@@H](CCCNC(=N)N)C(=O)N[C@@H](CCC(N)=O)C(=O)N[C@@H](Cc1c[nH]c2ccccc12)C(=O)N[C@H](C(N)=O)CSC3 [BrainBike-4] (H-CVHWDCRQWC-NH2; linker 1-6-10 via TBMB) , give its reported half-life at 100 µM.
A. 5.5

---

target of assay: human Transferrin Receptor (Homo sapiens)
Construct: purchased Acro Biosystems TFR-H82E5
Sequence (P02786 89-760 limits assumed): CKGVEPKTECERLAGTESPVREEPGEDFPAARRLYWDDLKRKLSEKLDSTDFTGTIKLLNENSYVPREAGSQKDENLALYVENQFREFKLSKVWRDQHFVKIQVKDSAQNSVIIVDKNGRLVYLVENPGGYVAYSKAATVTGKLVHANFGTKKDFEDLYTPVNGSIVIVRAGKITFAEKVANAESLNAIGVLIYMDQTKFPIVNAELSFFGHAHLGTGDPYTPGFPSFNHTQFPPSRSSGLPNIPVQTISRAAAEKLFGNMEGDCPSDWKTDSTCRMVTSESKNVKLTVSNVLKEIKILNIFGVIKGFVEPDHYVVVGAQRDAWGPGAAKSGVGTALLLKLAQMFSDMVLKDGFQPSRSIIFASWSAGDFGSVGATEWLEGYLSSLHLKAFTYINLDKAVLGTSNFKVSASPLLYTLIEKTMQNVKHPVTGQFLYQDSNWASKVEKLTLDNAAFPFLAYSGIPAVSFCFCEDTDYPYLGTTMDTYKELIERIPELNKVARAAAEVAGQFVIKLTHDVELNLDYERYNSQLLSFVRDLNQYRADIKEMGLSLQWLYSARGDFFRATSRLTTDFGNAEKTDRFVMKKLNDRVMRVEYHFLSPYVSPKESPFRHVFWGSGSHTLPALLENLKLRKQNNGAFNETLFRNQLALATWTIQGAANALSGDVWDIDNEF
assay: Biolayer interferometry with immobilized extracellular domain of the receptor
condition details: biotinylated hTfR on streptavidin biosensors, Octet R2, 25 °C, 10 mM HEPES pH 7.4, 150 mM NaCl, 0.05 % Tween-20, 1 mg/mL BSA; peptide 11.1, 33.3, 100 µM; 1:1 binding model; read-out: KD, binding to immobilized human TfR
pKd: −log10 of the molar value.
measured metric: pKd

Q. For the substance H-GVHWDFRQWWQPS-NH2 [Y1, reference compound] , give its reported pKd.
A. < 4.00

---

assay: Peptide stability in human serum
Assay type: in vitro ADME
condition details: peptide 100 µM, 37 °C, aliquots 0 min to 48 h, MeOH protein precipitation, % intact peptide by UHPLC-UV, confirmed with mass spectrometry
measured metric: half-life at 100 µM (h)
Provide the reading as a plain figure in h.

Q. For the substance H-GVHWDFRQWWQPS-NH2 [Y1, reference compound] , give its reported half-life at 100 µM.
A. 1.8

---

target of assay: HeLa cells (TfR1+) (Homo sapiens, UniProt P02786)
Sequence (P02786 whole entry): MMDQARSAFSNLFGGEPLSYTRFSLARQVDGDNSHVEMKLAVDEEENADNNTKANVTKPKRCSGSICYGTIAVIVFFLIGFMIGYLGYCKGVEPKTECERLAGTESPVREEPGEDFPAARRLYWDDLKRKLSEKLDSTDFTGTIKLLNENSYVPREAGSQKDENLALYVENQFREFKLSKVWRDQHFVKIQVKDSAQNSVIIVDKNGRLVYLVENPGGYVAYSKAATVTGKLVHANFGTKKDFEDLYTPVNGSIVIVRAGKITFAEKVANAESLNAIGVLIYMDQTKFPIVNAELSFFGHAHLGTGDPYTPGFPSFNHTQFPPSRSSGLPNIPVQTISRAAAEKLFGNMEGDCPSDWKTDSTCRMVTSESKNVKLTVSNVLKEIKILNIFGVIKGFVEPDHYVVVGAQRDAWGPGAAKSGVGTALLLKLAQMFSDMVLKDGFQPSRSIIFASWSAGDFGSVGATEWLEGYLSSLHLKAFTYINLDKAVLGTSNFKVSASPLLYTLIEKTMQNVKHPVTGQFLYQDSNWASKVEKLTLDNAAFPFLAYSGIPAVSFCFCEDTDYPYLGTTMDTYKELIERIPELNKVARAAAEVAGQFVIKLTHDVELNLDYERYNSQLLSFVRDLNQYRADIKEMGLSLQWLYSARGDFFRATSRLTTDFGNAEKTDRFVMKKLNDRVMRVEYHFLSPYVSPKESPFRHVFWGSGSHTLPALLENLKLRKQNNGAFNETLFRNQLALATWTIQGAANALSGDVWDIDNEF
assay: Cell binding assay of sCy5-labelled peptides to HeLa cells by flow cytometry
Assay type: cell-based
condition details: 5 to 600 nM, 4 °C, 1 hour, geometric mean vs concentration
Starred links: 1 amine or outer side, 2 acyl side, 3 side chain; linkers in the order of their positions; H or OH if unused. Positions of bridges follow the written chain, without caps; N, C: chain ends. Residues, ends and D or L forms follow the SMILES beside them. TBMB = c1c(C[*:1])cc(C[*:3])cc1C[*:2]
measured metric: App. Kd, association to HeLa cells (TfR1+) (µM)
Provide the reading as a plain figure in µM.

Q. For the compound CC(C)[C@@H]1NC(=O)[C@@H](N)CSCc2cc3cc(c2)CSC[C@H](NC(=O)[C@H](Cc2c[nH]c4ccccc24)NC(=O)[C@H](CCC(N)=O)NC(=O)[C@H](CCCNC(=N)N)NC(=O)[C@H](Cc2ccccc2)NC(=O)[C@H](CC(=O)O)NC(=O)[C@H](Cc2c[nH]c4ccccc24)NC(=O)[C@H](Cc2c[nH]cn2)NC1=O)C(=O)N[C@@H](CCC(N)=O)C(=O)N1CCC[C@H]1C(=O)N[C@@H](CO)C(=O)N[C@H](C(N)=O)CSC3 [BrainBike-2] (H-CVHWDFRQWCQPSC-NH2; linker 1-10-14 via TBMB) , give its reported App. Kd, association to HeLa cells (TfR1+).
A. 0.12

---

target of assay: HeLa cells (TfR1+) (Homo sapiens)
assay: Cell binding assay of sCy5-labelled peptides to HeLa cells by flow cytometry
Format: cell-based
condition details: 5 to 600 nM, 4 °C, 1 hour, geometric mean vs concentration
Starred links: 1 amine or outer side, 2 acyl side, 3 side chain; linkers in the order of their positions; H or OH if unused. Positions of bridges follow the written chain, without caps; N, C: chain ends. Residues, ends and D or L forms follow the SMILES beside them. TBMB = c1c(C[*:1])cc(C[*:3])cc1C[*:2]
measured metric: App. Kd, association to HeLa cells (TfR1+)

[[record]]
compound = "CC(C)[C@@H]1NC(=O)[C@@H](N)CSCc2cc3cc(c2)CSC[C@H](NC(=O)[C@H](CCCNC(=N)N)NC(=O)[C@H](Cc2ccccc2)NC(=O)[C@H](CC(=O)O)NC(=O)[C@H](Cc2c[nH]c4ccccc24)NC(=O)[C@H](Cc2c[nH]cn2)NC1=O)C(=O)N[C@@H](CCC(N)=O)C(=O)N[C@@H](Cc1c[nH]c2ccccc12)C(=O)N[C@@H](Cc1c[nH]c2ccccc12)C(=O)N[C@@H](CCC(N)=O)C(=O)N1CCC[C@H]1C(=O)N[C@@H](CO)C(=O)N[C@H](C(N)=O)CSC3 [BrainBike-3] (H-CVHWDFRCQWWQPSC-NH2; linker 1-8-15 via TBMB)"
endpoint_result = "250 ± 5 nM"


Q. For the compound CC(C)[C@@H]1NC(=O)[C@@H](N)CSCc2cc3cc(c2)CSC[C@H](NC(=O)[C@H](CC(=O)O)NC(=O)[C@H](Cc2c[nH]c4ccccc24)NC(=O)[C@H](Cc2c[nH]cn2)NC1=O)C(=O)N[C@@H](CCCNC(=N)N)C(=O)N[C@@H](CCC(N)=O)C(=O)N[C@@H](Cc1c[nH]c2ccccc12)C(=O)N[C@@H](Cc1c[nH]c2ccccc12)C(=O)N[C@@H](CCC(N)=O)C(=O)N1CCC[C@H]1C(=O)N[C@@H](CO)C(=O)N[C@H](C(N)=O)CSC3 [BrainBike-1] (H-CVHWDCRQWWQPSC-NH2; linker 1-6-14 via TBMB) , give its reported App. Kd, association to HeLa cells (TfR1+).
A. > 400 nM
